B1: LINE1-mini (parent)
chain: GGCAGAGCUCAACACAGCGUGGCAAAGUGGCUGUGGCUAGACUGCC

- Variants of: B1
- Procedure text: self-cleavage, relative activity (ratio to wild type); higher = more cleavage; in vitro, sequencing; the parent is a self-cleaving ribozyme
Measured parameter: self-cleavage

variant_string="G30C U43A" measured_parameter=self-cleavage obs_value=0.06
variant_string="G7U A25C" measured_parameter=self-cleavage obs_value=0.06
variant_string="C10A G19U" measured_parameter=self-cleavage obs_value=0.06
